Each entry below carries its reported Average A450 nm.
measurement.target: T1, Human c-Met-Flis-Fc ECD (human)
T1 construct: also called human c-Met extracellular domain (ECD)-Fc-Flis fusion; Human cMet-ECD-Fc-Flis
T1 sequence (chain, as listed by the source limits assumed): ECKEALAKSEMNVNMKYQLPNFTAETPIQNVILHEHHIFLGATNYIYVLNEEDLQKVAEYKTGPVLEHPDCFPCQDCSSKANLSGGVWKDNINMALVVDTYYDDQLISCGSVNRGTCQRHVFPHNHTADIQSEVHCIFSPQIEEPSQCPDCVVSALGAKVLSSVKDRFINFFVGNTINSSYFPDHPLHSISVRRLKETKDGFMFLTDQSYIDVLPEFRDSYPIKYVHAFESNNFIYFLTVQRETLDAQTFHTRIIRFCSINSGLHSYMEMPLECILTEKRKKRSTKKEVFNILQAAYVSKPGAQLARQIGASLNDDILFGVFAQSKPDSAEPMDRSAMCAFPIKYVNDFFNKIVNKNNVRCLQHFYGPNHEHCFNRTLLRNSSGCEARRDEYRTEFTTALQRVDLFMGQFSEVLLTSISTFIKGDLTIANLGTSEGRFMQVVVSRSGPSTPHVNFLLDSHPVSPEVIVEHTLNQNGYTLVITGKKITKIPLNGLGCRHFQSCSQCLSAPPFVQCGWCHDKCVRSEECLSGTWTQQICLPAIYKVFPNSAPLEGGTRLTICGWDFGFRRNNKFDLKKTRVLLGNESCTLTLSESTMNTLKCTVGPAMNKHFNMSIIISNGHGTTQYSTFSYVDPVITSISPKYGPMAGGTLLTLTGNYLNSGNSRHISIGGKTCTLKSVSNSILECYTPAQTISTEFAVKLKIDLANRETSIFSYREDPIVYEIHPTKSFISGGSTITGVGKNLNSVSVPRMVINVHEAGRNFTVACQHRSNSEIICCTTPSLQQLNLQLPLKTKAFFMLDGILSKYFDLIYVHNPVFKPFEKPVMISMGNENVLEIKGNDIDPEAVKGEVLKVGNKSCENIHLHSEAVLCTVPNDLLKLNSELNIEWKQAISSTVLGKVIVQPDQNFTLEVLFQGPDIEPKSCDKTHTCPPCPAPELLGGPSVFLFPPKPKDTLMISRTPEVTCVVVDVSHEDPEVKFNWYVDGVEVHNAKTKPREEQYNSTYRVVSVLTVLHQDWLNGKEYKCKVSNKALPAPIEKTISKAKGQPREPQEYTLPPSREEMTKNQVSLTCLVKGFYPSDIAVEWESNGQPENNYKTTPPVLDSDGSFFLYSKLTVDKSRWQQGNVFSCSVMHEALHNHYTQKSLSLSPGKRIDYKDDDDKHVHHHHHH
protocol.description: ELISA, coated ECD-Fc, antibody 0.060 ng/mL
parameter: Average A450 nm (A450 nm)

1) C8-6 (antibody, human IgG2, kappa, V domains shown, Called IgG4, kappa; also called Mab C8-6) VH: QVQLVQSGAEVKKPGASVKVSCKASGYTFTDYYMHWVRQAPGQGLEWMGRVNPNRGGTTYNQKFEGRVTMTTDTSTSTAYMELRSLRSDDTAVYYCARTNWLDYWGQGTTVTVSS VL: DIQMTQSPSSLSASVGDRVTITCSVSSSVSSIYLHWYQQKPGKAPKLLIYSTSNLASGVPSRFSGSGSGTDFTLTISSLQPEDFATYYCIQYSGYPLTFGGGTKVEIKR | 0.551
2) D11-C27G3 (antibody, human IgG2, kappa, V domains shown, Human engineered IgG2, kappa; also called D11-27G3) VH: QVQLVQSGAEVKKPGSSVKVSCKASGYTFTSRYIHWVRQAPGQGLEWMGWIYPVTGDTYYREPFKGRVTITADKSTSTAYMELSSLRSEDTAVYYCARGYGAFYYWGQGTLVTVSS VL: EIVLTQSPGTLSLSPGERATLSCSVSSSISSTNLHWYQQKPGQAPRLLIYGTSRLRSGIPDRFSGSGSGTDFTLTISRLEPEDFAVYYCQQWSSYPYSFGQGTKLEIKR | 0.46
3) C8-H241 (antibody, human IgG2, kappa, V domains shown, Called IgG4, kappa; also called Mab C8-H241) VH: QVQLVQSGAEVKKPGASVKVSCKASGYTFTDYYMHWVRQAPGQGLEWMGRVNPNRRGTTYNQKFEGRVTMTTDTSTSTAYMELRSLRSDDTAVYYCARANWLDYWGQGTTVTVSS VL: DIQMTQSPSSLSASVGDRVTITCSVSSSVSSIYLHWYQQKPGKAPKLLIYSTSNLASGVPSRFSGSGSGTDFTLTISSLQPEDFATYYCQVYSGYPLTFGGGTKVEIKR | 0.484

Hello, the source for this data is patent US20100129369A1, in case you need it.
